Entries and their measured binding signal follow.
Target: HNF4alpha2 (COS-7 nuclear extract) (Homo sapiens, UniProt P41235 1-474)
Sequence: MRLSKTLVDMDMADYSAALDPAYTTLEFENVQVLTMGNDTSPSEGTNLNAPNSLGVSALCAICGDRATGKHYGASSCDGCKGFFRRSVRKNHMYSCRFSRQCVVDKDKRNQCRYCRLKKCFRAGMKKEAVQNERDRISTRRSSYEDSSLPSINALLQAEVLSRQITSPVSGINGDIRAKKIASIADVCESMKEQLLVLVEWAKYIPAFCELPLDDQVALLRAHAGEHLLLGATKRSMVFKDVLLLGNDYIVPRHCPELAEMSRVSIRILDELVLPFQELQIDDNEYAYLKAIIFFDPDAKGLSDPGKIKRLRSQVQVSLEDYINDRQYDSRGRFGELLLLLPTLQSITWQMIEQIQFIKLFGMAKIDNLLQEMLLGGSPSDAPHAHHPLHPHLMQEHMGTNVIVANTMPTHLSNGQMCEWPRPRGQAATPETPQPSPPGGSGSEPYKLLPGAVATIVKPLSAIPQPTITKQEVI
Experiment: protein-binding microarray; COS-7 nuclear extract on double-stranded Agilent 4x180k PBM; binding buffer, salt, pH and temperature not given in the material; high values mean tight binding
Details: chain copies: 2; label: 3' end of strand 1 on the slide; dsDNA, one strand shown
Whole data set: some 18,000 sequences, median “log2 normalized intensity” near 0.39, cut for the highest 2% near 6.6. This is one part of a sample in which the highest values are shown more often than they occur.
Give just the number in log2 normalized intensity; leave the unit off.

Here are 8 sequences together with their reported answers.
>>> observed_value("CCCTCCCCCCACTCAAAATAGGAGTTAAGGGCCTAGGGAGATTAGAGTATCGGTCGA")
2.45
>>> observed_value("AAGAGACTTTGCCCTTTTTTTCTCTCCCCTGCCTAGGGAGATTAGAGTATCGGTCGA")
3.42
>>> observed_value("TAGCTTTAGCCGGACTTTGTCCTTTGATTTGCCTAGGGAGATTAGAGTATCGGTCGA")
6.43
>>> observed_value("GTGGACTTTGCCTGCCCATCCCGTGGACTCGCCTAGGGAGATTAGAGTATCGGTCGA")
3.88
>>> observed_value("GAAAAAGCTGACGCCCCACCCCCTCCACCCGCCTAGGGAGATTAGAGTATCGGTCGA")
6.44
>>> observed_value("CTATCTCAGATAGCTTTAGCCGGACTTTGTGCCTAGGGAGATTAGAGTATCGGTCGA")
5.18
>>> observed_value("ATACCCATTCACATGACCTTTGTCCGTTCCGCCTAGGGAGATTAGAGTATCGGTCGA")
7.01
>>> observed_value("AGCTGACGCCCCACCCCCTCCACCCCTGCCGCCTAGGGAGATTAGAGTATCGGTCGA")
6.82

Give a short answer stating reported binding signal for "TTTGGCCCCCAGAGCCCCGTGTCTCCCTACGCCTAGGGAGATTAGAGTATCGGTCGA" .
4.6

Give reported binding signal value for "TGTCGTTTGCTTAGTCTTATCTGAGGTGCCGCCTAGGGAGATTAGAGTATCGGTCGA"
0.932

Query binding signal for "TCAGATAGCTTTAGCCGGACTTTGTCCTTTGCCTAGGGAGATTAGAGTATCGGTCGA"
7.78

Item "CTTTCTATCAGCTCTCCGTGGACTTTGCCCGCCTAGGGAGATTAGAGTATCGGTCGA" : provide binding signal
9.49

Please give measured binding signal of the following entry: "TCTTCCTTTCTATCAGCTCTCCGTGGACTTGCCTAGGGAGATTAGAGTATCGGTCGA"
3.08
